Hello, the source for this data is paper PMC12096176, in case you need it.

# tested-target: DOR (Homo sapiens)
# Sequence (P41143 whole entry): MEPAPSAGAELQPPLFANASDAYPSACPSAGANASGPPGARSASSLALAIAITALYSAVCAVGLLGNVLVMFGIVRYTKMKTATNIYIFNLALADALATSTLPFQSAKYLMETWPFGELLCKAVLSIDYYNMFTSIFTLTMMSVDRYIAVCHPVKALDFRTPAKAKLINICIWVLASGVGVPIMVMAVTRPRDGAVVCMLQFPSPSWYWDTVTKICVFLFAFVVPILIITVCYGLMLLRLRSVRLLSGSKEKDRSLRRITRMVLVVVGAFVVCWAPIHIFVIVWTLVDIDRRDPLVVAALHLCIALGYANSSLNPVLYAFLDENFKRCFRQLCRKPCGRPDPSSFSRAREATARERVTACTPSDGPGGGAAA
quantity-kind: Ki (nM)
Just the number please, in nM, no unit attached.

The cases that follow already have their Ki on record.
Ask | Enter reported Ki observed with DOR (Homo sapiens) for O=C(N[C@@H]1CC[C@@]2(O)[C@H]3Cc4ccc(O)c5c4[C@@]2(CCN3CC2CC2)[C@H]1O5)c1cccc2c(Cl)coc12 [Compound 9]
Reply | 5.17

Ask | Entry to check: O=C(N[C@@H]1CC[C@@]2(O)[C@H]3Cc4ccc(O)c5c4[C@@]2(CCN3CC2CC2)[C@H]1O5)c1cccc2c(-c3ccncc3)coc12 [Compound 12]
Reply | 45

Ask | Entry to check: O=C(N[C@H]1CC[C@@]2(O)[C@H]3Cc4ccc(O)c5c4[C@@]2(CCN3CC2CC2)[C@H]1O5)c1cccc2c(-c3ccncc3)coc12 [Compound 6]
Reply | 97.7

Now consider a different compound.
Ask | Enter reported Ki observed with DOR (Homo sapiens) for Cc1coc2c(C(=O)N[C@@H]3CC[C@@]4(O)[C@H]5Cc6ccc(O)c7c6[C@@]4(CCN5CC4CC4)[C@H]3O7)cccc12 [Compound 10]
Reply | 13.1

----------
# tested-target: UniProt:P42866
# Sequence (P42866 whole entry): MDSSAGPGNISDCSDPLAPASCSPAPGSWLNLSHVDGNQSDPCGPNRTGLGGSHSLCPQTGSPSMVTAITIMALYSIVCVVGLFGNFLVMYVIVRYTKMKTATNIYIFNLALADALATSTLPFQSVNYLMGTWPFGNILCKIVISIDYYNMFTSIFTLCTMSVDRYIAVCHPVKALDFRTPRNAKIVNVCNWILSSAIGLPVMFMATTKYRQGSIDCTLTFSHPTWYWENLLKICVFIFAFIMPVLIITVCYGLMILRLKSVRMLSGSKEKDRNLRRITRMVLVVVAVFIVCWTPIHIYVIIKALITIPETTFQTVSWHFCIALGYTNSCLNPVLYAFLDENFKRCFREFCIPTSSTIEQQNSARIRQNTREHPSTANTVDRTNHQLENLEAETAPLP
# assay-details: MOR [35S]GTPγS functional assay, MOR-CHO membranes
quantity-kind: pEC50
Units for pEC50: none; it is -log10 of a concentration expressed in mol/L.

The cases that follow already have their pEC50 on record.
Ask | Query (compound): O=C(N[C@@H]1CC[C@@]2(O)[C@H]3Cc4ccc(O)c5c4[C@@]2(CCN3CC2CC2)[C@H]1O5)c1cccc2c(-c3ccccc3)coc12 ; field requested: pEC50
Reply | 9.25

Ask | Entry to check: O=C(N[C@@H]1CC[C@@]2(O)[C@H]3Cc4ccc(O)c5c4[C@@]2(CCN3CC2CC2)[C@H]1O5)c1cccc2c(Cl)coc12
Reply | 9.46

Ask | Entry to check: Cl.O=C(N[C@@H]1CC[C@@]2(O)[C@H]3Cc4ccc(O)c5c4[C@@]2(CCN3CC2CC2)[C@H]1O5)c1cccc2c(Br)coc12
Reply | 9.31

Ask | Entry to check: Cc1coc2c(C(=O)N[C@@H]3CC[C@@]4(O)[C@H]5Cc6ccc(O)c7c6[C@@]4(CCN5CC4CC4)[C@H]3O7)cccc12
Reply | 9.09

Ask | Entry to check: O=C(N[C@H]1CC[C@@]2(O)[C@H]3Cc4ccc(O)c5c4[C@@]2(CCN3CC2CC2)[C@H]1O5)c1cccc2c(-c3ccncc3)coc12
Reply | 7.92

Continuing:
Ask | Query (compound): Cc1coc2c(C(=O)N[C@H]3CC[C@@]4(O)[C@H]5Cc6ccc(O)c7c6[C@@]4(CCN5CC4CC4)[C@H]3O7)cccc12 ; field requested: pEC50
Reply | 8.34

Ask | Entry to check: O=C(N[C@@H]1CC[C@@]2(O)[C@H]3Cc4ccc(O)c5c4[C@@]2(CCN3CC2CC2)[C@H]1O5)c1cccc2c(-c3ccncc3)coc12
Reply | 8.92

Ask | Entry to check: O=C(N[C@H]1CC[C@@]2(O)[C@H]3Cc4ccc(O)c5c4[C@@]2(CCN3CC2CC2)[C@H]1O5)c1cccc2c(Cl)coc12
Reply | 8.58

Ask | Entry to check: Cl.O=C(N[C@H]1CC[C@@]2(O)[C@H]3Cc4ccc(O)c5c4[C@@]2(CCN3CC2CC2)[C@H]1O5)c1cccc2c(Br)coc12
Reply | 8.13

Ask | Entry to check: O=C(N[C@H]1CC[C@@]2(O)[C@H]3Cc4ccc(O)c5c4[C@@]2(CCN3CC2CC2)[C@H]1O5)c1cccc2c(-c3ccccc3)coc12
Reply | 7.56
